test: LogD; conditions: pH 7.4; In vitro LogD
recorded endpoint: logd
Answer with a bare number; do not write a unit.

Below, each entry is followed by its recorded logd result.
CC(C)(C)[C@@H](Nc1ncnc2[nH]c(-c3cnn(CC(N)=O)c3)cc12)c1ccc2c(n1)OCCO2 [ASAP-0011162]: 2.9
CNC(=O)c1cc2c(N[C@@H](c3ccc4c(c3)NC(=O)CO4)C(C)C)ncnc2[nH]1 [ASAP-0008571]: 2.8
CC(C)[C@H](Nc1ncnc2[nH]c(C(=O)N[C@H]3CCN(C)C3)cc12)c1ccc2c(c1)S(=O)(=O)CCC2 [ASAP-0012334]: 1.4
COc1ccc([C@@H](Cc2nnn[nH]2)NC(=O)c2ncnc3[nH]ccc23)cc1 [ASAP-0008340]: -0.1
CC(C)[C@H](Nc1ncnc2[nH]c(C(=O)N[C@@H]3CCN(C)C3)cc12)c1ccc2c(c1)S(=O)(=O)CCC2 [ASAP-0011196]: 1.4

Prompt line: What does the data say about its logd? Entry: Cn1ncc(-c2cc3c(N[C@@H](c4ccc5c(n4)OCCO5)C(C)(C)C)ncnc3[nH]2)c1C#N [ASAP-0011221]
Response line: 3.3

Prompt line: Entry to check: COCCNC(=O)c1c[nH]c2ncnc(N[C@H](c3ccc4c(c3)S(=O)(=O)CCC4)C(C)C)c12 (racemic) [ASAP-0008650]
Response line: 2.8

###

biological target: hERG (Homo sapiens); assay: In vitro hERG cardiotoxocity; details: top test concentration 30 uM
Sequence (Q12809 whole entry): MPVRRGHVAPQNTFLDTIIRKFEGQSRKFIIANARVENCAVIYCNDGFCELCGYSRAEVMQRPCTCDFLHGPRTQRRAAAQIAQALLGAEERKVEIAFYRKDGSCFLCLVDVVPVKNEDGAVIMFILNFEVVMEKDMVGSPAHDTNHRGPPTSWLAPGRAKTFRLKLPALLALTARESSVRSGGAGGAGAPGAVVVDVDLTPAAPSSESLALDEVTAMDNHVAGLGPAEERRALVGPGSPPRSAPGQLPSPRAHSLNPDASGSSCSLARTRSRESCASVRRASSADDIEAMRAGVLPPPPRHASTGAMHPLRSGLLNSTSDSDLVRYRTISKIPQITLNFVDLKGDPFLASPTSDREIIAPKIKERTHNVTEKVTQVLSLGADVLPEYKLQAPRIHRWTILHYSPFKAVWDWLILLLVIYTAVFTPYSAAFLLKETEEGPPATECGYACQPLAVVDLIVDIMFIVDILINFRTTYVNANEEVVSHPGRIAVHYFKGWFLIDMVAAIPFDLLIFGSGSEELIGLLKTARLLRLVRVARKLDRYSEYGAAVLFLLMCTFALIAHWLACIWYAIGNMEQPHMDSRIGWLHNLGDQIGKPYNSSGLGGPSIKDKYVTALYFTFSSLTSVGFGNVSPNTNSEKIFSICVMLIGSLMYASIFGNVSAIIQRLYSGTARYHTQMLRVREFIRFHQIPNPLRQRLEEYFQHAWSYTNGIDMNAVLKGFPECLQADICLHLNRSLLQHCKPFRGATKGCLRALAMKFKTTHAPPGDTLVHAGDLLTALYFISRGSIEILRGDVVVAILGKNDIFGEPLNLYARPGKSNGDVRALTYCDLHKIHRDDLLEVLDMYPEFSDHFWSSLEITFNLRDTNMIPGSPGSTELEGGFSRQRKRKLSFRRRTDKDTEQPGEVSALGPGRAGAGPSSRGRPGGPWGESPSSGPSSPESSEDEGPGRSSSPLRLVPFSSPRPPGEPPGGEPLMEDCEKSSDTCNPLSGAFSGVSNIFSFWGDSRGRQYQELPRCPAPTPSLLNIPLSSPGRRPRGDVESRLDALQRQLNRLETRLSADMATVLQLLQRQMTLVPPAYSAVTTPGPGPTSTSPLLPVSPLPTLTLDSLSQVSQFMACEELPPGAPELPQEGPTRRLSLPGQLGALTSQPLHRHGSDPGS
pIC50: −log10 of the molar value.
# pIC50 per record follows

Below, each entry is followed by its recorded pIC50 result.
CC(C)[C@H](Nc1ncnc2[nH]ccc12)c1ccc2c(c1)S(=O)(=O)CCC2: < 4.52
CC(C)C(Nc1ncnc2[nH]c(C(=O)NC3CCN(C)C3)cc12)c1ccc2c(c1)S(=O)(=O)CCC2 (centres unmarked): < 4.52
C[C@H](C(=O)O)[C@@H](NC(=O)c1ncnc2[nH]ccc12)c1ccc(Br)cc1: < 4.52

Prompt line: What does the data say about its pIC50? Entry: `CC(C)[C@@H](Nc1ncnc2[nH]c(-c3cnn(C)c3C#N)cc12)c1ccc2c(n1)OCCO2`
Response line: 5.00

Prompt line: Entry to check: `Cn1ncc(-c2cc3c(N[C@@H](c4ccc5c(n4)OCCO5)C(C)(C)C)ncnc3[nH]2)c1C#N`
Response line: 4.71

Prompt line: Entry to check: `CNCc1cc(-c2cc3c(N[C@@H](c4ccc5c(c4)S(=O)(=O)CCC5)C(C)C)ncnc3[nH]2)co1`
Response line: < 4.52

Prompt line: Entry to check: `CC(C)[C@H](Nc1ncnc2[nH]c(-c3cnn(C)c3C#N)cc12)c1ccc2c(n1)OCCO2`
Response line: 4.96

Prompt line: Entry to check: `COc1ccc([C@H](Cc2nnn[nH]2)NC(=O)c2ncnc3[nH]ccc23)cc1`
Response line: < 4.52

###

# perc_free per record follows
experiment: Protein binding; format: in vitro ADME; settings: In vitro fetal calf serum protein binding
Respond with the bare value in %.

Below, each entry is followed by its recorded perc_free result.
CC(C)[C@@H](Nc1ncnc2[nH]c(-c3cnn(C)c3C#N)cc12)c1ccc2c(n1)OCCO2: 3.84
COc1ccc([C@H](Cc2nnn[nH]2)NC(=O)c2ncnc3[nH]ccc23)cc1: 6.07
C[C@H](C(=O)O)[C@@H](NC(=O)c1ncnc2[nH]ccc12)c1ccc(Br)cc1: 4.3
CC(C)[C@H](Nc1ncnc2[nH]ccc12)c1ccc2c(c1)S(=O)(=O)CCC2: 9.5
Cn1ncc(-c2cc3c(N[C@@H](c4ccc5c(n4)OCCO5)C(C)(C)C)ncnc3[nH]2)c1C#N: 2.13

Prompt line: What does the data say about its perc_free? Entry: `CNCc1cc(-c2cc3c(N[C@@H](c4ccc5c(c4)S(=O)(=O)CCC5)C(C)C)ncnc3[nH]2)co1`
Response line: 8.01

Prompt line: Entry to check: `CC(C)[C@H](Nc1ncnc2[nH]c(-c3cnn(C)c3C#N)cc12)c1ccc2c(n1)OCCO2`
Response line: 7.24
